# Tested on: monocotyledonous and dicotyledonous test plants
# measurement protocol: Herbicidal action prior to emergence of the plants (pre-emergence action)
# Type: in vivo
# particulars: Cyperus; 250 g a.i./ha; pre-emergence spray; evaluated after 3 weeks; scale 10=total damage, 0=no action
For each record, write down the corresponding Pre-emergence action: Cyperus (rating).
One number for each entry.

| compound | value reported |
| --- | --- |
| Cc1nn(Cc2nc(C(F)(F)F)ccc2C(=O)C2=C(O)CCCC2=O)c(=O)s1 | 8 |

Go through the items and report each one's Pre-emergence action: Cyperus (rating).
1. Cc1nn(Cc2nc(C(F)(F)F)ccc2C(=O)c2cnn(C)c2O)c(=O)o1
2. CSC(C)n1c(C)cc(=O)n1Cc1nc(C(F)(F)F)ccc1C(=O)C1=C(O)CCCC1=O (racemic)
3. Cn1ncn(Cc2nc(C(F)(F)F)ccc2C(=O)C2=C(O)CCCC2=O)c1=O
4. Cc1nn(Cc2nc(C(F)(F)F)ccc2C(=O)C2=C(O)C3CCC(C3)C2=O)c(=O)s1 (stereo not drawn)

a:
1. 9
2. 10
3. 10
4. 6

meta.source: patent US20050256003A1
